Tested on: HOP-92 NSCLC
PROTOCOL_TEXT: NCI-60 one-dose screen, 48 h
CONDITION_LABEL: 10 µM unless noted
About 83,000 compounds went through this panel and 20% of them were active in at least one assay; those are over-represented in the sample as a whole. Calls of active or inactive are those of the source. The calls were made as follows: active = growth percent below 10; inactive = the rest.
Outcome codes: y = active, n = inactive

INSERT INTO assay_data (compound, discrete_label) VALUES
  ('Cc1c(N2CN3C[C@H](C)N4CN(c5c(C)n(C)n(-c6ccccc6)c5=O)CN5C[C@@H](C)N(C2)C3C54)c(=O)n(-c2ccccc2)n1C (stereo not given in full)', 'n'),
  ('COc1ccc(/C=C/C(=O)c2ccc(NC(=O)CSc3nnc(-c4cc(-c5ccccc5)nc5ccccc45)n3-c3ccccc3)cc2)cc1', 'n'),
  ('CC(C)CSc1oc(-c2ccccc2)nc1S(=O)(=O)c1ccccc1', 'n'),
  ('Cn1cc(/C=C2/C(=O)Nc3ccccc32)c2ccccc21', 'n'),
  ('CC1(C)OC(=O)C(=Cc2cccc(Br)c2)C(=O)O1', 'n'),
  ('N=C(N)c1ccc(-c2ccc(-c3ccc(Cl)cc3Cl)s2)cc1F', 'n'),
  ('COc1ccc(OC)c(Nc2nnc(-c3ccc(Cl)cc3)o2)c1', 'n'),
  ('CCC(C)Nc1ccc(NC(C)CC)cc1 (stereo not given)', 'n'),
  ('O=C(Cn1nnc([N+](=O)[O-])n1)c1ccccc1', 'n'),
  ('Fc1ccc(CNc2c3ccccc3nc3ccccc23)cc1', 'n'),
  ('CCOC(=O)C1=C(c2ccccc2)N=c2s/c(=C/c3ccc(Br)cc3)c(=O)n2C1c1ccc(O)cc1 (stereo not given)', 'n'),
  ('Nc1ccc([N+](=O)[O-])cc1N=C/C=C/c1ccccc1', 'n'),
  ('Brc1ccc(-c2cnc3nonc3n2)cc1', 'n'),
  ('C=C(c1ccc(C(=O)O)cn1)c1cc2c(cc1C)C(C)(C)CCC2(C)C', 'n'),
  ('O=C(O)c1cccc(N/C=C/C(=O)c2cc3cc(Br)ccc3oc2=O)c1', 'n'),
  ('CC1=NN(c2ccc(Cl)cc2)CC1(C)N=O (stereo not given)', 'n'),
  ('CN1CCN(Cc2ccc(NC(=O)c3cncc(C#Cc4cnn5ccccc45)c3)cc2C(F)(F)F)CC1', 'y'),
  ('c1ccc(CCc2ccccc2-c2cc(-c3ccccc3)on2)cc1', 'n'),
  ('C=C(CO)[C@@H]1CC[C@]2(COC3CCCCO3)CC[C@]3(C)[C@H](CC[C@@H]4[C@@]5(C)C=C(C=O)C(=O)C(C)(C)[C@@H]5CC[C@]43C)[C@@H]12 (stereo not given in full)', 'y'),
  ('CC(C)CN1CC(C(=O)Nc2ccc3c(c2)-c2ccccc2C3)CC1=O (stereo not given)', 'n'),
  ('O[C@@H](c1cc(C(F)(F)F)nc2c(C(F)(F)F)cccc12)[C@H]1CCCCN1', 'n'),
  ('COc1ccc2nc3cc(Cl)ccc3c(NCCN)c2c1', 'n'),
  ('Clc1nccc2c(-c3csc(-c4c[nH]c5ccccc45)n3)c[nH]c12', 'n'),
  ('CC1(C)CCC(S(=O)(=O)c2ccc3c(c2)/C(=N\O)c2cc(S(=O)(=O)N4CCN(c5ccc(F)cc5O)CC4)ccc2-3)CC1', 'y'),
  ('N=c1sc(Cc2cc(Cl)ccc2Cl)cn1CC(=O)c1ccccc1', 'n'),
  ('COc1cc2ncnc(Nc3ccc(F)c(Cl)c3)c2cc1OCC(=O)N1CCN(c2ccc(F)cc2)CC1', 'n'),
  ('O=C(/C=C/c1ccccc1)Nc1ncc(Cc2ccccc2)s1', 'n'),
  ('CCN1C(=O)N(CC)C2C1NN=c1s/c(=C3\C(=O)N(CCc4ccccc4)c4ccccc43)c(=O)n12 (stereo not given)', 'n'),
  ('COc1ncc2cc1NS(=O)(=O)c1cccc(c1)C(=O)NCC1=CC=C(S1)c1ncnc3c1SC2=C3C', 'y'),
  ('COc1cc(C(=O)/C=C/c2ccc(N3CCN(C)CC3)cc2)cc(OC)c1OC', 'n'),
  ('CC(O)c1ncc(/C=C2\SC(=S)N(Cc3ccccc3)C2=O)s1 (stereo not given)', 'n'),
  ('COc1ccc(Nc2ncc(C(N)=O)c(NCCCNC(=O)C3CCC3)n2)cc1', 'n'),
  ('Cn1cc(-c2nonc2-c2c[nH]c3ccccc23)c2ccccc21', 'y'),
  ('COc1ccc(C2=C/C(=C\c3ccc(Cl)cc3)C(=O)N2/N=C/c2ccc(Cl)cc2)cc1', 'n'),
  ('CC(=O)Nc1c(Cl)cc(Cl)c2c1Cc1cc([N+](=O)[O-])ccc1-2', 'n'),
  ('Cc1ncc(C(=O)Nc2ccc(CN3CCN(C)CC3)c(C(F)(F)F)c2)cc1C#Cc1cnc(N)c2cnccc12', 'n'),
  ('C[N+](C)(C/C=C/c1ccccc1)Cc1ccccc1', 'n'),
  ('Cc1cccc(N2CCN(C(=S)c3ccc4c(c3)OCO4)CC2)c1', 'n'),
  ('N#C/C(=C\c1ccc(Cl)cc1Cl)C(=O)Nc1ncc(Cc2ccc(Cl)c(Cl)c2)s1', 'n'),
  ('COC(=O)c1c2c(c(C)[n+]([O-])c1C)C(=O)C=CC2=O', 'n');
